B1: PhoQ; a variant is named by its letters at X, in order, P23837 (parent)
chain: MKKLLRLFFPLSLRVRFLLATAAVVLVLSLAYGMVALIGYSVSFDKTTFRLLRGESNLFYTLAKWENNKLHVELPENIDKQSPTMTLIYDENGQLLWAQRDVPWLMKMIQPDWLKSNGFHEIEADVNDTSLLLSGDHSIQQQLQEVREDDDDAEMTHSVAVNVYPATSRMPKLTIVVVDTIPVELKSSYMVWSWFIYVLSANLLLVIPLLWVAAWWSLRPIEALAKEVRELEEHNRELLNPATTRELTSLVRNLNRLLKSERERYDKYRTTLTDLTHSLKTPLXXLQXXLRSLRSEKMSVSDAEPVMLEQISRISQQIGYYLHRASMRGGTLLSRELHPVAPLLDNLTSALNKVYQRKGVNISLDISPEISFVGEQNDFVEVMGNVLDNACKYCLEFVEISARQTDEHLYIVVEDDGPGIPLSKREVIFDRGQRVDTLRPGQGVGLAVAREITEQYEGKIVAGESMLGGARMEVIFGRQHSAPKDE

variants of: B1; assay: enrichment ratio after two sorts for PhoP signalling (ratio (wild type AVST 3.29)); higher = more functional; conditions: with PhoP (E. coli)
The full ranking holds about 140,000 sequences; the median of “enrichment ratio after two sorts for PhoP signalling” is about 0, and the highest 2% start at about 11. The sample holds the highest values, similar sequences and a random draw of the others, so the mix is not that of the screen.
Listed here: items and their measured enrichment ratio.
Provide a numeric answer; units are not to be included.

Known results for variants:
- VARIANT NAME: "ACMK"
  enrichment ratio: 17.8
- VARIANT NAME: "ACMA"
  enrichment ratio: 34.1
- VARIANT NAME: "ACGF"
  enrichment ratio: 6.85
- VARIANT NAME: "ATMD"
  enrichment ratio: 27.9
- VARIANT NAME: "ACMF"
  enrichment ratio: 14.4

Query: Record request: enrichment ratio value, item ACVG
Reply: 4.01

Query: Item: ATMW
Reply: 26.9

Query: Item: ATNL
Reply: 5.25

Query: Item: ACVA
Reply: 3.46

Query: Item: ACMT
Reply: 10.1

Query: Item: ACMG
Reply: 14.3
